Experiment: recombinant barcode read abundance after kanamycin selection (control-corrected) (log10(CPM+1)); higher = more efficient recombination; sequences stand for … in AGTGCAGAGAAAATCGGCCAGTTTTCTCTGCCTGCAGTCCGCATGCCGT…AGATTTATGCAGCGGACTGCCTTTCTCCCAAAGTGATAAACCGGACAGTATCATGGACCGGTTTTCCCGGTAATCCGTATTTGCAAGGTTGGTTTCACT; site = the 11-nt target
Measurement Kind: recombinant barcode read abundance (log10)

TCTAGTCCTTGGGTTCTAACCTGTTGCCT (site TCTAGTCCTAG) = 0.036
TGAGCACCTTGGGTTCTAACCTGTTGCCT (site TGAGCACCTAG) = 1.74
GTCGGAGCTTGGGTTCTAACCTGTTGCTG (site GTCGGAGCTCC) = 0.511
GAGAGAGCTTGGGTTCTAACCTGTTGCAT (site GAGTGAGCTAT) = 0.14
AAGGCGCCTTGGGTTCTAACCTGTTGCCT (site AGGGCGCCTAG) = 0.128
GTCGGAGCTTGGGTTCTAACCTGTTGCCG (site GTCGGAGCTCA) = 0.0109
GAGAACACTTGGGTTCTAACCTGTTGCCT (site TAGAACACTAG) = 0.852
GAAATTCCTTGGGTTCTAACCTGTTGCCT (site GAAATTCCTAG) = 0.371
CGCTGGACTTGGGTTCTAACCTGTTGCCT (site CGCTGGACTAG) = 0.158
ATCTTACCTTGGGTTCTAACCTGTTGCCG (site ATCTTACCTCG) = 0.448
GGCATCCCTTGGGTTCTAACCTGTTGCCT (site GGCTTCCCTAG) = 0.145

----------
Assay: recombinant barcode read abundance after kanamycin selection (control-corrected) (log10(CPM+1)); higher = more efficient recombination; sequences stand for … in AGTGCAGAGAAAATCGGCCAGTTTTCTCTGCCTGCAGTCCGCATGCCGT…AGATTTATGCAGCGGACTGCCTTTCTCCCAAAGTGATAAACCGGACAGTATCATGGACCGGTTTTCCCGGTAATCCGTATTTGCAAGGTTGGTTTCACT; site = the 11-nt target
Measurement Kind: recombinant barcode read abundance (log10)

ACCAGTCCTTGGGTTCTAACCTGTTGCTA (site ACCAGTCCTTA) = 0.934
GGAGAAGCTTGGGTTCTAACCTGTTGCCT (site GGAGACGCTAG) = 0.569
CCTGAGTCTTGGGTTCTAACCTGTTGCCT (site CCTGACTCTAG) = 0.0437
GTTTGACCTTGGGTTCTAACCTGTTGCTT (site GTTTGACCTAA) = 0.532
CTCCGCTCTTGGGTTCTAACCTGTTGCCT (site TTCCGCTCTAG) = 0.113
GACTTGACTTGGGTTCTAACCTGTTGCCT (site GACTTGCCTAG) = 0.0736
CATAGGCCTTGGGTTCTAACCTGTTGCAT (site CATAGCCCTAT) = 0.371
ACAACCACTTGGGTTCTAACCTGTTGCCT (site ACAACGACTAG) = 0.0258
CGGAGCTCTTGGGTTCTAACCTGTTGCCT (site CGGAGCTCTAG) = 1.94
ATAAGTCCTTGGGTTCTAACCTGTTGCGA (site ACAAGTCCTCC) = 0.869
CATTTCCCTTGGGTTCTAACCTGTTGCCT (site CATTTCCCTAG) = 0.23
CACCCTACTTGGGTTCTAACCTGTTGCCT (site CACCCTACTAG) = 1.26
TTGATTACTTGGGTTCTAACCTGTTGCCA (site TTGAGTACTCG) = 0.0598
GACTAGTCTTGGGTTCTAACCTGTTGCAG (site CGGGGCCCTAA) = 0.156
GAGATGTCTTGGGTTCTAACCTGTTGCCT (site GCGATGTCTAG) = 0.147
CGGGGCCCTTGGGTTCTAACCTGTTGCTT (site CGGGGCCCTAA) = 2.6
CATGGGCCTTGGGTTCTAACCTGTTGCCT (site CTTGGGCCTAG) = 0.174
GGAAGCTCTTGGGTTCTAACCTGTTGCTT (site GGAAGCTCTAA) = 0.591
CTACTAGCTTGGGTTCTAACCTGTTGCAT (site CTACTAGCTGT) = 0.167
TTAGAGGCTTGGGTTCTAACCTGTTGCCT (site TTAGAGCCTAG) = 0

----------
Experiment: recombinant UMI read abundance after kanamycin selection (control-corrected) (log10(CPM+1)); higher = more efficient recombination; extreme values may be limits of the assay; sequences stand for … in AGTGCAGAGAAAATCGGCCAGTTTTCTCTGCCTGCAGTCCGCATGCCGTGGGACCCCTTGGGTTCTAACCTGTTGCCTAGATTTATGCAGCGGACTGCCTTTCTCCCAAAGTGATAAACCGG…AGGTTGGTTTCACT; site = the 11-nt donor
Measurement Kind: recombinant UMI read abundance (log10)

ATTGATACATGGACCGGTTTTCCCGGTAATCCGTATTTGGT (site ATTGAGACTAC) = 0.00596
AATGTAACATGGACCGGTTTTCCCGGTAATCCGTATTTGAT (site AATGTAACTAA) = 0.00583
CATTGCACATGGACCGGTTTTCCCGGTAATCCGTATTTGTT (site CATTGCACTAA) = 0.487
GCGAAGCCATGGACCGGTTTTCCCGGTAATCCGTATTTGGG (site GTGAAGCCTCC) = 0.0355
CTGCCCTCATGGACCGGTTTTCCCGGTAATCCGTATTTGTT (site CTGCCCTCTAA) = 2.18
AAGCCCGCATGGACCGGTTTTCCCGGTAATCCGTATTTGGG (site AAGCTCGCTCC) = 0.0406
CCTAAGACATGGACCGGTTTTCCCGGTAATCCGTATTTGGC (site CCTAAGACTGC) = 0
CGATGGACATGGACCGGTTTTCCCGGTAATCCGTATTTGTT (site CGATTGACTAA) = 0.00606
TTTGCGGCATGGACCGGTTTTCCCGGTAATCCGTATTTGCT (site TTTGGGGCTAG) = 0.00746
GGAGTGGCATGGACCGGTTTTCCCGGTAATCCGTATTTGGT (site GCAGTGGCTAC) = 0.497

----------
Assay: recombinant barcode read abundance after kanamycin selection (control-corrected) (log10(CPM+1)); higher = more efficient recombination; sequences stand for … in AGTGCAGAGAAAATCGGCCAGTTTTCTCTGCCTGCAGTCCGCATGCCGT…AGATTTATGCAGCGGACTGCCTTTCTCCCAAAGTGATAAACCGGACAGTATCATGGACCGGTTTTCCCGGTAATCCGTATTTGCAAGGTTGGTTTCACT; site = the 11-nt target
// reported recombinant barcode read abundance (log10) for each item listed
Measurement Kind: recombinant barcode read abundance (log10)

GACGTAACTTGGGTTCTAACCTGTTGCCT (site GACGTAACTAG) = 0.508
CACTTCCCTTGGGTTCTAACCTGTTGCAT (site CACTTCCCTAG) = 0.316
CATCCTACTTGGGTTCTAACCTGTTGCCT (site TCCAACTCTGT) = 0.153
GTCTAAGCTTGGGTTCTAACCTGTTGCCT (site GTCTGAGCTAG) = 0.0375
TCCCCGGCTTGGGTTCTAACCTGTTGCGG (site TCCCCGGCTCC) = 1.48
CGTAAACCTTGGGTTCTAACCTGTTGCGT (site CGTCAACCTAC) = 0.0732
AGTTTCGCTTGGGTTCTAACCTGTTGCGG (site AGTATCGCTCC) = 0.215
AATTGGCCTTGGGTTCTAACCTGTTGCTT (site AATTGGCCTAA) = 0.344
TCCGCTGCTTGGGTTCTAACCTGTTGCCT (site TCCGCTTCTAG) = 0.00679
CGTATGACTTGGGTTCTAACCTGTTGCCT (site GGTATGACTAG) = 0.103
GGGGCGTCTTGGGTTCTAACCTGTTGCCT (site GGGGCGTCTAG) = 1.55
AGCATAACTTGGGTTCTAACCTGTTGCCT (site AGGAGAACTAG) = 0.261
TCTTGTCCTTGGGTTCTAACCTGTTGCGG (site TCTTGTCCTCC) = 0.526
GAGCCGCCTTGGGTTCTAACCTGTTGCAT (site GAGCCGCCTAT) = 1.48
GGCCGTCCTTGGGTTCTAACCTGTTGCAG (site GGCCGTCCTCT) = 0.118
GCAGGTCCTTGGGTTCTAACCTGTTGCCT (site GCGGGTCCTAG) = 0.744
AATTTAGCTTGGGTTCTAACCTGTTGCCT (site AATTAAGCTAG) = 0.172
ATAAGAGCTTGGGTTCTAACCTGTTGCCT (site ATAACAGCTAG) = 0.0202
CGCTCCTCTTGGGTTCTAACCTGTTGCCT (site GGCTCCTCTAG) = 0.0456
AGGTCCTCTTGGGTTCTAACCTGTTGCCT (site AGGTCCTCTAT) = 0.703
TGGATGCCTTGGGTTCTAACCTGTTGCCT (site TGAATGACTAG) = 0.0485
CTCTACACTTGGGTTCTAACCTGTTGCTG (site CTCTACACTCA) = 1.13
ATCGGAGCTTGGGTTCTAACCTGTTGCGG (site ATCGGAGCTCT) = 0.592
GTCTACTCTTGGGTTCTAACCTGTTGCTG (site GTCTACTCTCA) = 1.65
ATGTAGGCTTGGGTTCTAACCTGTTGCCT (site ATGTAGGCTAG) = 0.137
GCCGTAGCTTGGGTTCTAACCTGTTGCCT (site GCCGTAGCTAG) = 0.0284
AGGATTCCTTGGGTTCTAACCTGTTGCCT (site ACGATTCCTAG) = 0.634
CGAGAGACTTGGGTTCTAACCTGTTGCTT (site CAAGAGTCTAA) = 0.0807
TAGCATGCTTGGGTTCTAACCTGTTGCAC (site TAGCATGCTTT) = 0.306
TACAAGTCTTGGGTTCTAACCTGTTGCAG (site TACAAGTCTCT) = 1.47
TACTAAGCTTGGGTTCTAACCTGTTGCAT (site TACTAAGCTAG) = 0.274
CTATTCTCTTGGGTTCTAACCTGTTGCTA (site CTATTCTCTTA) = 1.62
TACTAAGCTTGGGTTCTAACCTGTTGCGT (site TACTAAGCTAA) = 0.238
GTTTCCTCTTGGGTTCTAACCTGTTGCCG (site GTTTCCTCTCG) = 0.78
TAGTGGACTTGGGTTCTAACCTGTTGCCA (site TAGTGGCCTTG) = 0.151
TAGTACTCTTGGGTTCTAACCTGTTGCTC (site TAGTACTCTGA) = 1.52
CAAGTCCCTTGGGTTCTAACCTGTTGCCT (site CAAGTCCCTAG) = 1.9
GTATCTACTTGGGTTCTAACCTGTTGCCT (site GAATCTACTAG) = 0
